- Test system: MOLT-4 leukemia
- experimentalProtocol: NCI tumour cell line growth inhibition, 48 h
readoutName: TGI

Solved cases below.
> print(dat)
                                   compound     value
1  Cc1ccc(/C(O)=C/c2nc3ccccc3nc2NC23CC4CC(CC(C4)C2)C3)cc1   > 10 µM
2  CCCC[P+](CCCC)(CCCC)C(C(=O)OC)C(C(=O)OC)=C1SC(C(=O)OC)=C(C(=O)OC)S1 (configuration not stated)  > 100 µM
3  Cc1cc(Cl)ccc1NC(=O)/C(Cc1nc2ccc(C(=O)c3ccccc3)cc2[nH]c1=O)=N/NC(=O)c1ccncc1  > 100 µM

Let's switch to this compound now.
Query :: Print MOLT-4 leukemia TGI for O=[N+]([O-])c1ccc(OCCNc2cccc3ccccc23)cc1 .
Result :: > 100 µM
